Target: Fes (UniProt P07332)
Sequence (P07332 whole entry, looked up): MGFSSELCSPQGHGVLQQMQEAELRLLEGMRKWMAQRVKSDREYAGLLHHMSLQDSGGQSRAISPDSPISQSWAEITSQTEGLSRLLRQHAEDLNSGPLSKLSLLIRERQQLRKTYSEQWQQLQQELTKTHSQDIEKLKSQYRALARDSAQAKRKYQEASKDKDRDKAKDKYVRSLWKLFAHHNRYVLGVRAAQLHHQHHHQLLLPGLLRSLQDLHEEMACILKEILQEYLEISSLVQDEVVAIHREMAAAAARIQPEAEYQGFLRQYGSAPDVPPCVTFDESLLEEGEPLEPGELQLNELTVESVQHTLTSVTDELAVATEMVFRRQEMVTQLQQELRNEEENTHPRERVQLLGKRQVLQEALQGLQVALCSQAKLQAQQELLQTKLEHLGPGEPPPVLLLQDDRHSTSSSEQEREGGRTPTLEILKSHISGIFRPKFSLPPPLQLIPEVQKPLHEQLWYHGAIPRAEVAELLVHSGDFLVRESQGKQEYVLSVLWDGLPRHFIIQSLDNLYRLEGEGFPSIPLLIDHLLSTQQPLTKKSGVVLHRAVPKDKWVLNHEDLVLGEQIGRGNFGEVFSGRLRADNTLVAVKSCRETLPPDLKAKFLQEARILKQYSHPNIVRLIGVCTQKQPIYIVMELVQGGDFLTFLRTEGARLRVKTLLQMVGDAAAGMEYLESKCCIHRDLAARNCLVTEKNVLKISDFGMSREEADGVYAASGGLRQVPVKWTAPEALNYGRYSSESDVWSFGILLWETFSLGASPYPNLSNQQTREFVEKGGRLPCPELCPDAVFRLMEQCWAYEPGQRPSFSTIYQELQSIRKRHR
Assay: phosphorylation enrichment, bacterial display (enrichment ratio); higher = better substrate or ligand; peptides without Tyr show the background;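 also: 11-residue human phosphosite peptides and single-mutation variants displayed on the E. coli surface, counted by deep sequencing, each peptide's frequency after selection divided by its frequency in the unselected input library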;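 also: frequency after pTyr selection over input frequency; kinase dosed for 20-30% of maximal phosphorylation in three min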
# cutoff 1 applies to phosphorylation enrichment; >= gives fulfilled, < gives not fulfilled

Ask: Say whether FRDALYKFMVD [PHEX_Y250_YF] shows phosphorylation enrichment of 1 or more.
Reply: fulfilled

Ask: Identify whether the reported phosphorylation enrichment of the following sequence is 1 or greater: NNTFLYQLVFD [EXO1_Y284]
Reply: fulfilled

Ask: Record FQGRRYDCDCD [CRYGS_Y21] ; criterion: phosphorylation enrichment no lower than 1. Met?
Reply: not fulfilled

Ask: Test whether the sequence TLKDVCDDGKY [RPS6KA3_Y483_Y483C] records phosphorylation enrichment of 1 or higher.
Reply: fulfilled

Ask: I'd appreciate it if you could say whether ESMNTYLQTSP [NAT1_Y208] has phosphorylation enrichment at least equal to 1.
Reply: not fulfilled

Ask: Could you tell me if the measured phosphorylation enrichment of GVSYIYTIDGS [DCX_Y105_R102S] reaches 1 or more?
Reply: fulfilled

Ask: # bool: phosphorylation enrichment of GPQGFYSNKLV [PTPN14_Y506_V505F] >= 1
Reply: not fulfilled

Ask: Dear colleague, could you confirm whether KPPPTYESEEE [BRD4_Y599] has phosphorylation enrichment at or above 1?
Reply: fulfilled

Ask: Exam item: decide whether the reported phosphorylation enrichment for GAAMLYFPSVS [GPR143_Y177_YF] is at least 1.
Reply: not fulfilled

Ask: Quick check: does DLDLTYIFPNI [PTEN_Y27_YF] have phosphorylation enrichment greater than or equal to 1?
Reply: fulfilled
